System: A498 renal
assay: NCI tumour cell line growth inhibition, 48 h; in the data active means GI50 below about 0.43 µM; inactive means the rest
Classes to choose from: active, inactive

Reference set, count: 6
| smiles.notation | category |
| --- | --- |
| O=C1c2ccc3c4c(ccc(c24)C(=O)N1CCCNCc1ccccc1)C(=O)N(CCCNCc1ccccc1)C3=O | inactive |
| CN(C)CCN1C(=O)c2cccc3c(N)ccc(c23)C1=O | inactive |
| COc1cc(-c2nc3ccccc3[nH]2)ccc1OCC(=O)N=Nc1c(O)[nH]c2ccc(Cl)cc12 | inactive |
| C=CC(=O)NCCOc1cccc(Nc2cc(NCCCNC(=O)C3CCC3)c(Br)cn2)c1 | inactive |
| COc1ccc2c(c1)CC[C@@H]1[C@@H]2CC[C@]2(C)c3[nH]ncc3C[C@@H]12 | inactive |
| COc1ccc2c(O)c(/C=C3\N=Nc4ncccc43)oc2c1C[C@H]1CCNC[C@H]1F | active |

Q: Query: recorded result category for COc1ccc(N2CCN(CN3CCN(c4ccc(OC)cc4)C3)C2)cc1 in this test
Result: inactive
